System: CEM cells HIV-1 protection, formazan growth assay
procedure.summary: NCI AIDS Antiviral Assay
pEC50: −log10 of the molar value.
Would you mind telling me the reported pEC50 of each entry?

Data request: Supply measured pEC50 of O=C(CCC(=O)C1Cc2ccccc2C1=O)Nc1cccc(C(F)(F)F)c1 (stereo not drawn) in your reply.
Data returned: < 3.18

Data request: Read off the recorded pEC50 for "O=CC(=C(I)I)c1ccccc1"
Data returned: < 5.70

Data request: Check the records and state pEC50 for "O=C(Nc1ccc(Cl)cc1)Sc1nnc2c(n1)[nH]c1ccccc12"
Data returned: 4.52

Data request: Give a short answer stating reported pEC50 for COC1(C)CP(=O)(OC(C)C)CC(C)=C1Cl (stereo not drawn) .
Data returned: < 4.70

Data request: Note down pEC50 recorded for NC(CS)C(=O)NCCNCCNc1ccc(NCCNCCNC(=O)C(N)CS)c2c1C(=O)c1c(O)ccc(O)c1C2=O (stereo not drawn)
Data returned: < 3.70

Data request: Hello, please tell me recorded pEC50 for this one: N#CCCC1(CCC#N)CCCCCCC(CCC#N)(CCC#N)C(O)C1O (stereo not drawn)
Data returned: < 3.70

Data request: Provide one value: measured pEC50 of CC(NC(=O)/C(=C/c1ccccc1)NC(=O)c1ccccc1)C(=O)O (stereo not drawn)
Data returned: < 3.70

Data request: Give a short answer stating reported pEC50 for CCC12OC(COc3ccccc3)CN1CCS2 (stereo not drawn) .
Data returned: < 3.59

Data request: Please supply the value of reported pEC50 for the item O=c1nc(-c2ccccc2)cc(CC(O)(c2ccc(C(F)(F)F)cc2)c2ccc(Cl)c(Cl)c2)[nH]1 (stereo not drawn)
Data returned: < 4.70

Data request: Report pEC50 for CC1C(NNC(N)=O)Oc2cc3c(cc2C1c1ccccc1O)OCO3 (stereo not drawn)
Data returned: < 3.70

Data request: Give reported pEC50 value for "CC(C)=CC[C@]12CCN(C)[C@H]1N(S(=O)(=O)c1ccccc1)c1ccccc12"
Data returned: < 3.70

Data request: Note down pEC50 recorded for OC1CCN2Cc3ccccc3N=C12 (stereo not drawn)
Data returned: < 3.70

Data request: Return value of pEC50 for input NC(CCCCCP(=O)(O)O)C(=O)O (stereo not drawn) , no commentary.
Data returned: < 3.70

Data request: Supply pEC50 value. Item: "COc1cc(-c2ccccc2)cn2c1nc1ccccc12"
Data returned: < 3.70

Data request: Specify measured pEC50 for "CCOC(=O)c1ccc(N=C2C(=S)N(c3ccc(C(=O)OCC)cc3)C(=N)N2/N=C/c2ccccc2)cc1" .
Data returned: < 3.70

Data request: Identify measured pEC50 corresponding to "N#CC1(C#N)N[C@@H](c2ccsc2)[C@H]2C(=O)N(c3ccccc3)C(=O)[C@H]21"
Data returned: < 3.70

Data request: Indicate its recorded pEC50; the compound in question is "COc1ccc(Nc2nnc(CCCCCCCCc3nnc(Nc4ccc(OC)cc4)o3)o2)cc1"
Data returned: < 3.70

Data request: Identify pEC50 associated with the compound COC(=O)C1(C(=O)OC)N=C(C)OC1c1ccccn1 (stereo not drawn)
Data returned: < 3.70

Data request: Identify pEC50 associated with the compound "CC(=O)Nc1ccc(-c2nnc(SCC(=O)Nc3cccc([N+](=O)[O-])c3)o2)cc1"
Data returned: < 4.34

Data request: Identify the reported pEC50 for the following entry. O=C(Cc1ccccc1)NN1C(=O)C(Cl)C1c1ccc(O)cc1 (stereo not drawn)
Data returned: < 3.69

Data request: Identify the reported pEC50 for the following entry. "CC(/C=C/c1ncccc1OCCCCCC(=O)O)=N\NC1=NCCN1"
Data returned: < 4.16

Data request: Specify pEC50 for "Cc1cccnc1NC(=O)NCCCl" and stop.
Data returned: < 3.70

Data request: Specify pEC50 for COC(=O)c1onc(C2OC(C)(C)OC2C(O)COC(c2ccccc2)(c2ccccc2)c2ccccc2)c1C(=O)OC (stereo not drawn) and stop.
Data returned: < 3.70

====

Tested on: CEM cells HIV-1 protection, formazan growth assay
procedure.summary: NCI AIDS Antiviral Assay
pEC50: −log10 of the molar value.
observable: pEC50

Data request: Supply reported pEC50 belonging to this compound: "CC1=NN(C(=O)c2ccc(Cl)cc2)C(=O)/C1=C/c1ccc(O)cc1"
Data returned: < 4.82

Data request: Fill in reported pEC50 for this entry: CC(=O)NC1C(OCc2ccccc2)OC(CO)C(O)C1OC(C)C(=O)N[C@@H](C)C(=O)N[C@H](CCC(=O)OCCNc1c2ccccc2nc2cccc([N+](=O)[O-])c12)C(N)=O (stereo not given in full)
Data returned: < 7.70

Data request: Specify pEC50 for "CCn1c(O)c(C=Nc2ccccc2)s/c1=N/Nc1nc(-c2ccccc2)cs1" and stop.
Data returned: < 3.70

Data request: Answer with the recorded pEC50 for the compound listed here: O=C1NCN(c2ccccc2)C12CCN(CC1COc3ccccc3O1)CC2 (stereo not given)
Data returned: < 3.70

Data request: Provide measured pEC50 value, entry: CC(=O)OC1COC(n2c(=S)n(-c3ccc(C)cc3)c(=O)c3ccccc32)C(OC(C)=O)C1OC(C)=O (stereo not given)
Data returned: < 4.59

Data request: Supply reported pEC50 belonging to this compound: "Cc1cccc(NC(=S)Nc2cccc(Cl)c2)n1"
Data returned: < 3.70

Data request: Return reported pEC50. Input compound: "COc1cc(Cc2cc3c(c(C(=O)O)c2Br)OCO3)cc(OC)c1OC"
Data returned: < 3.70

Data request: Name the recorded pEC50 of the compound listed here: CN(C)CC1CCCCC1O (stereo not given)
Data returned: < 2.89

Data request: Supply pEC50 value. Item: "CCn1nc2c3c(ncn3C(C)(C)O2)c1=O"
Data returned: < 3.70

Data request: Let me know recorded pEC50 for "c1ccc([P+](CCSCCSCC[P+](c2ccccc2)(c2ccccc2)c2ccccc2)(c2ccccc2)c2ccccc2)cc1" , thanks.
Data returned: < 3.47

====

Provide the recorded pIC50 for the entries that follow.
Test system: CEM cells HIV-1 protection, formazan growth assay
procedure.summary: NCI AIDS Antiviral Assay
study.conditions: measured here: growth of uninfected CEM cells
pIC50: −log10 of the molar value.

Data request: Item O=C(O)CC(c1ccccc1)C(CC(=O)O)c1ccccc1 (stereo not given) : provide pIC50
Data returned: < 3.36

Data request: Supply reported pIC50 belonging to this molecule: "COc1ccccc1NC(=O)/C(Cc1nc2ccc([N+](=O)[O-])cc2[nH]c1=O)=N\NC(=O)C[N+](C)(C)C"
Data returned: 4.30

Data request: Supply measured pIC50 of C#CCNC(Cc1cnc[nH]1)C(=O)O (stereo not given) in your reply.
Data returned: < 3.70

Data request: Output pIC50 of "Oc1c(-c2ccccc2)nc2cnccn12"
Data returned: < 3.35

Data request: # return recorded pIC50 for input "S=C(/N=c1/sc(Nc2ccccc2)nc2sc3c(c12)CCCC3)Nc1ccccc1"
Data returned: < 3.90

Data request: Return pIC50 for the following molecule: "CC(=O)Nc1cccc(S(=O)(=O)c2cccc(NC(=O)c3ccccc3SC(=O)CCCC[n+]3ccccc3)c2)c1"
Data returned: < 3.70

Data request: Output pIC50 of "O=C(O)[C@H]1C[C@H](O)CN1C(=O)c1ccccc1SSc1ccccc1C(=O)N1C[C@H](O)C[C@H]1C(=O)O"
Data returned: < 3.70

Data request: Supply recorded pIC50 for "CCN(CCO)CCNc1ccc(C)c2sc3ccccc3c(=O)c12" here.
Data returned: 5.54

Data request: Please give measured pIC50 of the following entry: "Cc1nc(-n2nc(-c3ccccc3)cc2-c2ccccc2)sc1C(=O)/C=C/c1ccc(Cl)cc1"
Data returned: < 4.83

Data request: Find the measured pIC50 of "CN(C)C(=S)Nc1ccc(Cl)cc1" and report it.
Data returned: 4.28

====

Tested on: CEM cells HIV-1 protection, formazan growth assay
procedure.summary: NCI AIDS Antiviral Assay;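 active means compounds giving half or more protection of infected cells from virus-caused growth loss, again on retest; inactive means the rest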
Where a SMILES comes first, the peptide text is derived from it. The star is where a group is joined. Cbz = O=C(OCc1ccccc1)*
Parameter call: string, one of active, inactive

Data request: In this assay, the call recorded for "O=c1[nH]nc(Cc2ccc(Cl)cc2)n1CCO" was what?
Data returned: inactive

Data request: Test call, this compound: "CCSCCCCCCCCCCCC(=O)O"
Data returned: active

Data request: Returns: the outcome recorded for "COC(=O)[C@H](Cc1ccccc1)NC(=O)N1CCCN(C(=O)N[C@@H](Cc2ccccc2)C(=O)OC)CCCN(C(=O)N[C@@H](Cc2ccccc2)C(=O)OC)CCC1" in this assay.
Data returned: inactive

Data request: Can you look up the reported call for C=CCNC(=O)C(O)C(O)C(=O)NCC=C (configuration not stated) for me?
Data returned: inactive

Data request: Could you kindly confirm the outcome this assay logged for "COc1ccc(N2N=NN(C(C)C)/C2=C(/Cl)c2nnnn2-c2ccc(OC)cc2)cc1" ?
Data returned: inactive

Data request: Each compound tested received a call. Report the one for CCOC(=O)CNC(=O)C(C)NC(=O)C(NC(=O)OCc1ccccc1)C(C)C (stereo not drawn) (Cbz-Val-Ala-Gly-OEt; configuration not given here) .
Data returned: inactive

Data request: Any idea what this test logged for Cc1ccc(C2(C)NC(=S)N(NC(N)=S)C2=S)cc1 (configuration not stated) ?
Data returned: inactive

Data request: Recorded test outcome, item "O=CCCn1[nH]c(=O)ccc1=O"
Data returned: inactive

Data request: Hi team, can someone confirm the assay call for "CCOCNC=O" ?
Data returned: inactive

Data request: How was COC12CCC(C(C(=O)c3ccccc3)=C1C(=O)c1ccccc1)C(O)C2 (configuration not stated) classified in this test?
Data returned: inactive

Data request: Tell me the recorded outcome of this test for "Cc1nc2cccc(F)c2c(=O)n1-c1nnc(C2CC2)s1" .
Data returned: inactive

Data request: Can you look up the reported call for "O=[N+]([O-])c1ccc(-c2cc(O)c3nc4ccccc4n3c2)cc1" for me?
Data returned: inactive

Data request: Test call, this compound: COc1ccc(C2Oc3cc(OC)ccc3C(=O)C2c2ccccc2)cc1 (configuration not stated)
Data returned: inactive

Data request: Hi, do you know how "COc1c(C(=O)/C(=N/Nc2ccccc2)C(C)=O)c(O)c(OC)c2occc12" came out in this test?
Data returned: inactive

Data request: Lab log entry: "CCNC(=S)N/N=C(/c1ccc(OC)cc1)P(=O)(OCC)OCC" — outcome as called in the assay?
Data returned: inactive

Data request: Field: outcome | Entry: "Cc1ccc(S(=O)(=O)c2ccc(O)cc2)cc1"
Data returned: inactive

Data request: Please indicate how the test categorized "N#CCCN(CCC#N)c1ccc(/C=C(/NC(=O)c2cc([N+](=O)[O-])ccc2Cl)C(=O)NN)cc1" .
Data returned: inactive

Data request: Status in this test for CCCOC(C(=O)OC1CCC2CCC1N2C)(c1ccccc1)c1ccccc1 (configuration not stated) ?
Data returned: inactive

Data request: Hi, sorry to bother you, what did the test record for Cc1cc(Cl)ccc1NC(=O)CC1SC(=Nc2ccccc2Cl)NC1=O (configuration not stated) ?
Data returned: inactive

Data request: Hi, sorry to bother you, what did the test record for "CC(C)=NOC(=O)Nc1cccc2c1OCO2" ?
Data returned: inactive

Data request: Outcome? "O=C(O)c1cccc(Nc2c(C(=O)O)cccc2[N+](=O)[O-])c1"
Data returned: inactive

Data request: Tell me the assay call for "O=C(c1ccc(S(=O)(=O)c2ccccc2)cc1)c1ccc(S(=O)(=O)c2ccccc2)cc1" please.
Data returned: inactive
